- Test: Selectivity index, ratio of IC50 for cytotoxicity in human NHDF cells to IC50 for cytotoxicity in human KB cells
Measured quantity: Ratio IC50

Lookup result for CC(C)(C)OC(=O)O[C@@H]1[C@@H](Cn2cc(COC(=O)Nc3ccn([C@@H]4O[C@H](CO)[C@@H](O)C4(F)F)c(=O)n3)nn2)O[C@@H](n2ccc(NC(=O)OCc3ccccc3)nc2=O)C1(F)F ; measured Ratio IC50: 4.94

Lookup result for O=C(Nc1ccn([C@@H]2O[C@H](CO)[C@@H](O)C2(F)F)c(=O)n1)OCc1cn(C[C@H]2O[C@@H](n3ccc(NC(=O)c4ccccc4)nc3=O)C(F)(F)[C@@H]2OC(=O)c2ccccc2)nn1 ; measured Ratio IC50: 2.91

Lookup result for CC(C)(C)OC(=O)O[C@@H]1[C@@H](Cn2cc(CNc3ccn([C@@H]4O[C@H](CO)[C@@H](O)C4(F)F)c(=O)n3)nn2)O[C@@H](n2ccc(N)nc2=O)C1(F)F ; measured Ratio IC50: 2.67

Lookup result for Cc1cn([C@H]2C[C@H](n3cc(COC(=O)Nc4ccn([C@@H]5O[C@H](CO)[C@@H](O)C5(F)F)c(=O)n4)nn3)[C@@H](CO)O2)c(=O)[nH]c1=O ; measured Ratio IC50: 4.32

Lookup result for Nc1ccn([C@@H]2O[C@H](CO)[C@@H](O)[C@@H]2O)c(=O)n1 ; measured Ratio IC50: 1.23

Lookup result for O=C(Nc1ccn([C@@H]2O[C@H](Cn3cc(CNc4ccn([C@@H]5O[C@H](CO)[C@@H](O)C5(F)F)c(=O)n4)nn3)[C@@H](O)C2(F)F)c(=O)n1)OCc1ccccc1 ; measured Ratio IC50: 2.44

Lookup result for Nc1ccn([C@@H]2O[C@H](CO)[C@@H](O)C2(F)F)c(=O)n1 ; measured Ratio IC50: 2.37
